# Test system: A7r5 cells derived from the aorta of a rat
# methodNotes: Inhibition of serum-stimulated proliferation of vascular smooth muscle cells, acid phosphatase activity
# Format: cell-based
# testConditions: Rattus norvegicus, A7R5; 30 μM; 48 hours after 2% FBS stimulation; control 100 ± 10; n = 3, mean ± SD
Exercise: state measured activity at 30 µM for each of the compounds provided.
// return numeric value only (unit: %, not printed)

Given the compound CC1(C)Cc2c(cc(C(C)(C)C)c(O)c2C(C)(C)C)O1 and test system A7r5 cells derived from the aorta of a rat, the measured activity at 30 µM is 7

activity at 30 µM for A7r5 cells derived from the aorta of a rat with input CC1(C)Cc2c(cc(C(C)(C)C)c(O)c2C(C)(C)C)S1 equals 5

Case CC(C)(C)c1cc2c(c(C(C)(C)C)c1O)CC1(CCCCCC1)O2 , A7r5 cells derived from the aorta of a rat, activity at 30 µM recorded as 12

Tested system A7r5 cells derived from the aorta of a rat; activity at 30 µM recorded for CCCCCC1(CCCCC)Cc2c(cc(C(C)(C)C)c(O)c2C(C)(C)C)S1 was 17

Bench note, A7r5 cells derived from the aorta of a rat: CC(C)(C)c1cc2c(c(C(C)(C)C)c1O)CC1(CCCCC1)S2 , activity at 30 µM reads 5

Form field activity at 30 µM for item CC(C)(C)c1cc2occc2c(C(C)(C)C)c1O [Example 27, 4,6-Di-t-butyl-5-hydroxybenzofuran] on A7r5 cells derived from the aorta of a rat: 26

###

# Test system: A7r5 cells derived from the aorta of a rat
# methodNotes: Inhibition of serum-stimulated proliferation of vascular smooth muscle cells, acid phosphatase activity
# Format: cell-based
# testConditions: Rattus norvegicus, A7R5; 100 μM; 48 hours after 2% FBS stimulation; control 100 ± 10; n = 3, mean ± SD
Please go through the items and note down their activity at 100 µM.
Kindly answer with a numeric value in %, unit omitted.

The compound identified as CCCCCC1(CCCCC)Cc2c(cc(C(C)(C)C)c(O)c2C(C)(C)C)O1 [Example 36] registered its activity at 100 µM at 62

Lab note: measured activity at 100 µM of CC(C)(C)c1cc2c(c(C(C)(C)C)c1O)CC1(CCOCC1)O2 [Example 22] was 90

Looking up CC(C)(C)c1cc2c(c(C(C)(C)C)c1O)CCO2 [Example 1] , I see its activity at 100 µM listed as 33

Form: compound = CCCOc1cc(C(C)(C)C)c(O)c(C(C)(C)C)c1C [Example 31] ; activity at 100 µM = 69
